Listed here are compounds together with their documented IC50.
Target: human PDHK2 (hPDHK2) (Homo sapiens (Human))
Experiment: Inhibitory action of PDHK activity in vitro (kinase reaction, residual PDH activity measured)
Assay type: biochemical
Conditions: read-out: PDHK inhibitory activity IC50
Numbers only here, please. The scale is µM.

Worked cases, IC50 given:
CC(C)Cc1cc(-c2cnn(C(CO)CO)c2)c2c(c1)C(O)(C(F)(F)F)c1ccccc1-2 (single isomer, unassigned) [compound 665] ... 0.023
CCNC(=O)Cn1cc(-c2cccc3c2-c2ccccc2C3(O)C(F)(F)F)cn1 (stereo not drawn) ... 0.056
NC(=O)COc1cc(Cl)c2c(c1)C(O)(C(F)(F)F)c1ccccc1-2 (stereo not drawn) ... 0.234
CCc1ccc2c(c1)C(O)(C(F)(F)F)c1ccccc1-2 (stereo not drawn) ... 4.52

### Prompt Suppose we examine the compound OCC(CO)(CO)n1cc(-c2cc(F)cc3c2-c2ccccc2C3(O)C(F)(F)F)cn1 (single isomer, unassigned; (+)) ; what IC50 value has been reported?
### Response 0.02

### Prompt Suppose we examine the compound COc1ccc2c(c1)C(O)(C(F)(F)F)c1ccccc1-2 (stereo not drawn) ; what IC50 value has been reported?
### Response 3.96

* * *

Molecular target: human PDHK2 (hPDHK2) (Homo sapiens (Human), UniProt Q15119)
Assay: Inhibitory action of PDHK activity in vitro (kinase reaction, residual PDH activity measured)
Format: biochemical
Settings: read-out: PDHK inhibitory activity IC50
Doc: threshold 60 nM (exclusive). Items with IC50 beneath it return criterion met; others return criterion not met.

O=C(O)CCn1cc(-c2cc(Cl)c3c(c2)C(O)(C(F)(F)F)c2ccccc2-3)cn1 (centres unmarked) ... criterion met
CN1C(=O)CC[C@H]1COc1ccc2c(c1)C(O)(C(F)(F)F)c1ccccc1-2 (some centres unmarked) ... criterion not met
CC(=O)N(C)CC(C)Oc1ccc2c(c1)C(O)(C(F)(F)F)c1ccccc1-2 (centres unmarked) ... criterion not met
O=C(O)CCCOc1cc(-c2cncnc2)c2c(c1)C(O)(C(F)(F)F)c1ccccc1-2 (centres unmarked) [compound 510] ... criterion not met
CN(CCOc1cnc2c(c1)C(O)(C(F)(F)F)c1ccccc1-2)C(=O)CO (centres unmarked) ... criterion not met

### Prompt hey, is IC50 for O=C(O)C1CCCN1C(=O)c1ccc2c(c1)C(O)(C(F)(F)F)c1ccccc1-2 (centres unmarked) lower than 60 nM or not?
### Response criterion not met

### Prompt hey, is IC50 for OCCn1cc(-c2cc(-c3cnn(CCO)c3)c3c(c2)C(O)(C(F)(F)F)c2ccccc2-3)cn1 (centres unmarked) lower than 60 nM or not?
### Response criterion met

### Prompt hey, is IC50 for CN(CCO)C(=O)COc1ccc2c(c1)C(O)(C(F)(F)F)c1ccccc1-2 (centres unmarked) lower than 60 nM or not?
### Response criterion not met

* * *

Target: human PDHK2 (hPDHK2) (Homo sapiens (Human))
Assay: Inhibitory action of PDHK activity in vitro (kinase reaction, residual PDH activity measured)
Format: biochemical
Conditions: read-out: PDHK inhibitory activity IC50
measurement.label: IC50

Worked cases, IC50 given:
OC1(C(F)(F)F)c2ccccc2-c2c(-c3ccccc3)cccc21 (stereo not drawn) [compound 126] ... > 10000 nM
CC(C)Cn1cc(-c2cccc3c2-c2ccccc2C3(O)C(F)(F)F)cn1 (stereo not drawn) [compound 386] ... 89 nM
O=C(c1ccc2c(c1)C(O)(C(F)(F)F)c1ccccc1-2)N1CCC(O)C1 (stereo not drawn) [compound 215] ... 4600 nM

### Prompt Suppose we examine the compound NC(=O)Cn1cc(-c2cc(Cl)cc3c2-c2ccccc2C3(O)C(F)(F)F)cn1 (stereo not drawn) [compound 506] ; what IC50 value has been reported?
### Response 30 nM

### Prompt Suppose we examine the compound NC(=O)c1cc(C(=O)N2CCC2)cc2c1-c1ccccc1C2(O)C(F)(F)F (stereo not drawn) [compound 174] ; what IC50 value has been reported?
### Response 66 nM

### Prompt Suppose we examine the compound CN(CCOc1cc(-c2cnn(C)c2)c2c(c1)C(O)(C(F)(F)F)c1ccccc1-2)C(=O)C(C)(C)O (stereo not drawn) [compound 501] ; what IC50 value has been reported?
### Response 32 nM

### Prompt Suppose we examine the compound O=C1CCCN1CCOc1cnc2c(c1)C(O)(C(F)(F)F)c1ccccc1-2 (stereo not drawn) [compound 430] ; what IC50 value has been reported?
### Response 64 nM

### Prompt Suppose we examine the compound CCCc1ccc2c(c1)C(O)(C(F)(F)F)c1ccccc1-2 (stereo not drawn) [compound 70] ; what IC50 value has been reported?
### Response 2210 nM

### Prompt Suppose we examine the compound O=C(O)C1CCN1C(=O)c1ccc2c(c1)C(O)(C(F)(F)F)c1ccccc1-2 (stereo not drawn) [compound 314] ; what IC50 value has been reported?
### Response > 10000 nM

* * *

Listed here are compounds together with their documented log10 IC50.
Molecular target: human PDHK2 (hPDHK2) (Homo sapiens (Human), UniProt Q15119)
Test: Inhibitory action of PDHK activity in vitro (kinase reaction, residual PDH activity measured)
Format: biochemical
Settings: read-out: PDHK inhibitory activity IC50
In plain terms, each number is the log10 of measured IC50 in nM.

Cn1cc(-c2cc(OCCCCCO)cc3c2-c2ccccc2C3(O)C(F)(F)F)cn1 (centres unmarked) ... 1.49
O=C(c1ccc2c(c1)C(O)(C(F)(F)F)c1ccccc1-2)N1CC(C(=O)N2CCC(O)CC2)C1 (centres unmarked) ... 2.63
NC(=O)CCCCOc1ccc2c(c1)C(O)(C(F)(F)F)c1ccccc1-2 (centres unmarked) ... 2.66
CCn1cc(-c2cc(C(N)=O)c3c(c2)C(O)(C(F)(F)F)c2ccccc2-3)cn1 (centres unmarked) [compound 530] ... 1.63
OC1(C(F)(F)F)c2ccccc2-c2c(-c3cnco3)cccc21 (centres unmarked) ... 2.61
CNC(=O)c1cccc(-c2ccc3c(c2)C(O)(C(F)(F)F)c2ccccc2-3)c1 (centres unmarked) ... 2.55

### Prompt Suppose we examine the compound Cc1cc(-c2cnn(C(C)(C)C(=O)O)c2)c2c(c1)C(O)(C(F)(F)F)c1ccccc1-2 (single isomer, unassigned) ; what log10 IC50 value has been reported?
### Response 1.72

### Prompt Suppose we examine the compound O=C(c1cccc2c1-c1ccccc1C2(O)C(F)(F)F)C1CC1 (centres unmarked) ; what log10 IC50 value has been reported?
### Response 3.06

### Prompt Suppose we examine the compound O=C(O)c1ccc(-c2ccc3c(c2)C(O)(C(F)(F)F)c2ccccc2-3)cc1 (centres unmarked) ; what log10 IC50 value has been reported?
### Response 2.58

### Prompt Suppose we examine the compound CC(O)c1cc(-c2cnn(C)c2)cc2c1-c1ccccc1C2(O)C(F)(F)F (centres unmarked) ; what log10 IC50 value has been reported?
### Response 2.81

### Prompt Suppose we examine the compound OC1(C(F)(F)F)c2ccccc2-c2c(Br)cc(Cl)cc21 (centres unmarked) ; what log10 IC50 value has been reported?
### Response 2.53

### Prompt Suppose we examine the compound O=C(O)c1ccc2c(c1)-c1ccccc1C2(O)C(F)(F)F (centres unmarked) ; what log10 IC50 value has been reported?
### Response 4.84

### Prompt Suppose we examine the compound O=C(c1ccc2c(c1)C(O)(C(F)(F)F)c1ccccc1-2)N1CC(C(=O)N2CCCC2)C1 (centres unmarked) ; what log10 IC50 value has been reported?
### Response 2.21

### Prompt Suppose we examine the compound NC(=O)CCn1cc(-c2cc(Cl)c3c(c2)C(O)(C(F)(F)F)c2ccccc2-3)cn1 (centres unmarked) ; what log10 IC50 value has been reported?
### Response 1.56

* * *

Target: human PDHK2 (hPDHK2) (Homo sapiens (Human))
Experiment: Inhibitory action of PDHK activity in vitro (kinase reaction, residual PDH activity measured)
Assay type: biochemical
Details: read-out: PDHK inhibitory activity IC50
measurement.label: IC50 (nM)
Numbers only here, please. The scale is nM.

Cn1cc(-c2ccc3c(c2)C(O)(C(F)(F)F)c2ccccc2-3)cn1 (stereo not shown) ... 189
O=C1CCCN1CCOc1cc(-c2cnn(CCO)c2)c2c(c1)C(O)(C(F)(F)F)c1ccccc1-2 (stereo not shown) ... 24
CC(CCOc1cc(-c2cnn(C)c2)c2c(c1)C(O)(C(F)(F)F)c1ccccc1-2)C(=O)O (single isomer, unassigned) ... 23

### Prompt Suppose we examine the compound O=C(O)CCCOc1cc(-c2cn[nH]c2)c2c(c1)C(O)(C(F)(F)F)c1ccccc1-2 (stereo not shown) ; what IC50 value has been reported?
### Response 47

* * *

Biological target: human PDHK2 (hPDHK2) (Homo sapiens (Human))
Assay: Inhibitory action of PDHK activity in vitro (kinase reaction, residual PDH activity measured)
Type: biochemical
Conditions: PDHK inhibitory activity, class symbol of IC50
pIC50: −log10 of the molar value.
Listed here are molecules together with their documented pIC50.

O=C(c1cc(CO)c2c(c1)C(O)(C(F)(F)F)c1ccccc1-2)N1CCCC1 (stereo not shown) ... 6.00 to 7.00
CNC(=O)Cn1cc(-c2cc(C)cc3c2-c2ccccc2C3(O)C(F)(F)F)cn1 (stereo not shown) ... > 7.00

### Prompt Suppose we examine the molecule O=C(O)CCOc1ccc2c(c1)C(O)(C(F)(F)F)c1ccccc1-2 (stereo not shown) ; what pIC50 value has been reported?
### Response < 6.00

### Prompt Suppose we examine the molecule O=C(O)CCCOc1cc(-c2cncnc2)c2c(c1)C(O)(C(F)(F)F)c1ccccc1-2 (stereo not shown) ; what pIC50 value has been reported?
### Response > 7.00

Ref: patent US8871934B2
